target: T1, CPI80^RRKKRR (CPI80 with the INCENP RRKKRR-motif replaced with alanine residues) (human, UniProt O15392 1-142; Q9NQS7 1-80; Q53HL2 10-109, RRKKRR to hexa-alanine); assay: ITC; 400 µM peptide injected into 50 µM protein; 100 mM NaCl, 20 mM Tris-HCl pH 7.2, 1 mM DTT; 25°C; 1:1 binding model; settings: both partners purified
T1 construct: survivin, human; INCENP, human, residues 1-80 with RRKKRR to hexa-alanine; borealin, human, residues 10-109 as in CPI80; not restated for this mutant; also called CPI80^RRKKRR mutant; source: E. coli BL21-CodonPlus (DE3)-RIL, purified (Glutathione Sepharose, SEC); not shown: His6, N-terminal, cleaved; GST, N-terminal, cleaved; copies: + +
T1 sequence (O15392 whole entry, stated change not applied, chain 1 of 3, the tested form may be a part): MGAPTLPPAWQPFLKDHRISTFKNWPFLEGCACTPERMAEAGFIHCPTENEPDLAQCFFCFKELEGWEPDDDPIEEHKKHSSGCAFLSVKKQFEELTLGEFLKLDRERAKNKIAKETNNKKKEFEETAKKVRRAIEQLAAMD
T1 sequence (Q9NQS7 other isoform, or with tags, fused parts or gaps RRKKRR to hexa-alanine | RRKKRR to hexa-alanine, chain 2 of 3): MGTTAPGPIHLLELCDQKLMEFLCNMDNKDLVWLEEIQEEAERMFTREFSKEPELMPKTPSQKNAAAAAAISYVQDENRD
T1 sequence (Q53HL2 10-109, stated change not applied, chain 3 of 3): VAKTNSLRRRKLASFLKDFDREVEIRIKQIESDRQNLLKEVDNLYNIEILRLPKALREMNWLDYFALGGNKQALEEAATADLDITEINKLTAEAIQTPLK
Square brackets hold non-standard residues; d marks the D form. Ends that are not written are not given here. pT = C[C@@H](OP(=O)(O)O)[C@H](N)C(=O)O
For each record, write down the corresponding Kd.
Answers are plain numbers, in nM.

AR[pT]KQTARKSTG (also called pH3T3; H3pT3 phosphopeptide; source: synthetic peptide (Peptide Protein Research Ltd)) [H3pT3 (1–12) phosphopeptide] ... 600

// switching to the query binder
### Prompt # query: Kd of entry ARTKQTARKSTG (histone H3 residues 1-12; also called H3T3 nonphosphopeptide; nonphosphorylated H3 peptide; source: synthetic peptide (Peptide Protein Research Ltd)) [H3 (1–12) peptide]
### Response 3300
